Test system: Pseudomonas aeruginosa ATCC 27853
Assay: Injectable formulations on mice infected with peritonitis
Format: in vivo, ICR mice
Settings: 0.2 mg/kg via tail vein, twice a day for 3 days, n = 10
Non-standard residues stand in square brackets, D forms with d. Residues, ends and D or L forms follow the SMILES beside them. dPhe(3,4-F2) = N[C@H](Cc1ccc(F)c(F)c1)C(=O)O; d2Nal = N[C@H](Cc1ccc2ccccc2c1)C(=O)O
reported-metric: Number of mice that died on each day after infection: day 3

Reference set (2 entries):
INSERT INTO assay_data (compound, reported_result) VALUES
  ('CC(=O)N[C@H](CCCCN)C(=O)N[C@H](CCCCN)C(=O)N[C@H](CC(C)C)C(=O)N[C@H](CC(C)C)C(=O)N[C@H](Cc1ccc2ccccc2c1)C(=O)N[C@H](CCCNC(=N)N)C(=O)N[C@H](CC(C)C)C(=O)N[C@H](CCCCN)C(=O)N[C@H](Cc1ccc2ccccc2c1)C(=O)N[C@H](CCCNC(=N)N)C(=O)N[C@H](CCCCN)C(N)=O [LV-19] (Ac-[dK][dK][dL][dL][d2Nal][dR][dL][dK][d2Nal][dR][dK]-NH2)', '0 Mouse'),
  ('CC(=O)N[C@H](CCCCN)C(=O)N[C@H](CCCCN)C(=O)N[C@H](CC(C)C)C(=O)N[C@H](CC(C)C)C(=O)N[C@H](Cc1ccc2ccccc2c1)C(=O)N[C@H](CCCCN)C(=O)N[C@H](CC(C)C)C(=O)N[C@H](CCCCN)C(=O)N[C@H](Cc1ccc2ccccc2c1)C(=O)N[C@H](CCCCN)C(=O)N[C@H](CCCCN)C(N)=O [LV-17] (Ac-[dK][dK][dL][dL][d2Nal][dK][dL][dK][d2Nal][dK][dK]-NH2)', '1 Mouse');

So what does the record say about Number of mice that died on each day after infection: day 3 for CC(=O)N[C@H](CCCNC(=N)N)C(=O)N[C@H](CCCCN)C(=O)N[C@H](CC(C)C)C(=O)N[C@H](CC(C)C)C(=O)N[C@H](Cc1ccc(F)c(F)c1)C(=O)N[C@H](CCCCN)C(=O)N[C@H](CC(C)C)C(=O)N[C@H](CCCCN)C(=O)N[C@H](Cc1ccc(F)c(F)c1)C(=O)N[C@H](CCCCN)C(=O)N[C@H](CCCNC(=N)N)C(N)=O [LV-6] (Ac-[dR][dK][dL][dL][dPhe(3,4-F2)][dK][dL][dK][dPhe(3,4-F2)][dK][dR]-NH2) ?
1 Mouse
